molecules and their reported %Inh
Test system: DMPK;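 also: KINOMEscan kinase panel screen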
Details: concentration: 1 μM, replicates: in singlicate; n = 1

[
  {
    "Molecule": "Cn1cc(-c2ccc3c(c2)CCN3C(=O)Cc2cccc(F)c2)c2c(N)ncnc21",
    "Unit label": "%",
    "%Inh": 0
  },
  {
    "Molecule": "Nc1n[nH]c2cnc(-c3ccccc3)cc12",
    "Unit label": "%",
    "%Inh": 31
  },
  {
    "Molecule": "O=c1[nH]cc(-c2ccc(N3CCOCC3)cc2)c2sc(-c3cn[nH]c3)cc12",
    "Unit label": "%",
    "%Inh": 0
  },
  {
    "Molecule": "CN1CCN(CCCNc2nccc(-c3c(-c4ccc(F)cc4)nn4cc(C(F)(F)F)ccc34)n2)CC1",
    "Unit label": "%",
    "%Inh": 0
  },
  {
    "Molecule": "CCS(=O)(=O)c1ccc(OC)c(Nc2nccc(-c3c(-c4cccc(NC(=O)c5c(F)cccc5F)c4)nn4ncccc34)n2)c1",
    "Unit label": "%",
    "%Inh": 0
  },
  {
    "Molecule": "O=C(Nc1cccc(-c2nn3ccccc3c2-c2ccnc(Nc3cccc(F)c3)n2)c1)c1c(F)ccc(F)c1Cl",
    "Unit label": "%",
    "%Inh": 0
  },
  {
    "Molecule": "CCc1ccc(-c2ccc3c(c2)-c2c(cnn2C)S(=O)(=O)N3C)cc1",
    "Unit label": "%",
    "%Inh": 0
  },
  {
    "Molecule": "Cc1ccc(C)c(NC(=O)NC2CCN(c3ccnc(Nc4ccc(F)cc4)n3)C2)c1 (stereo not drawn)",
    "Unit label": "%",
    "%Inh": 0
  },
  {
    "Molecule": "CC(=O)N1CCN(c2ccc(Nc3nccc(-c4sc(C(C)C)nc4-c4cccc(NS(=O)(=O)c5cccc(Cl)c5)c4)n3)cn2)CC1",
    "Unit label": "%",
    "%Inh": 0
  },
  {
    "Molecule": "Fc1ccc(-c2ncn(C3CCNCC3)c2-c2ccnc(Oc3ccc(-c4ccccc4)cc3)n2)cc1",
    "Unit label": "%",
    "%Inh": 5
  },
  {
    "Molecule": "Nc1ncc(-c2cccnc2)c2scc(-c3ccc4c(c3)CCN4C(=O)Cc3ccccc3)c12",
    "Unit label": "%",
    "%Inh": 4
  },
  {
    "Molecule": "COC(=O)Nc1nc2ccc(Oc3ccc(NC(=O)Nc4cc(C(F)(F)F)ccc4F)cc3)cc2n1C.Cl",
    "Unit label": "%",
    "%Inh": 0
  },
  {
    "Molecule": "Cc1cccc(Nc2nc(N[C@H]3CCNC3)ncc2C(N)=O)c1.Cl",
    "Unit label": "%",
    "%Inh": 0
  },
  {
    "Molecule": "Oc1cc(Nc2ccnc3cc(I)ccc23)ccc1F",
    "Unit label": "%",
    "%Inh": 0
  },
  {
    "Molecule": "COc1ccc(Nc2nccc(N3CCC(NC(=O)Nc4cccc(OC)c4)C3)n2)cc1 (stereo not drawn)",
    "Unit label": "%",
    "%Inh": 0
  },
  {
    "Molecule": "COc1cc(Nc2nccc(-c3c(-c4cccc(NC(=O)c5c(F)cccc5F)c4)nn4ncccc34)n2)cc(OC)c1OC",
    "Unit label": "%",
    "%Inh": 8
  },
  {
    "Molecule": "Cl.NC(=O)c1cccc(Nc2nccc(Nc3ccc(Oc4c(Cl)cccc4Cl)c(Cl)c3)n2)c1",
    "Unit label": "%",
    "%Inh": 0
  },
  {
    "Molecule": "Clc1ccc(-c2nn3ncccc3c2-c2ccnc(Nc3ccc4c(c3)OCCO4)n2)cc1",
    "Unit label": "%",
    "%Inh": 0
  }
]
